SYSTEM TESTED: full length recombinant Pim-2 protein (Homo sapiens)
Construct: by full length recombinant Pim-1, Pim-2, or Pim-3 protein; hexahistidine tag followed by a thrombin cleavage site (N); made in house; host or cells: Sf9 (baculovirus) or E. coli (pET28)
PROTOCOL NOTES: Pim-2 enzyme assay (HTRF, phosphorylation of biotinylated-BAD (S112) peptide)
Format: biochemical
CONDITION SUMMARY: enzyme assay, Pim-2; read-out: Pim2_IC50
pIC50: −log10 of the molar value.
PROPERTY MEASURED: pIC50

Study these solved cases before continuing.
{"CPD SMILES": "COc1cccc(-c2ccc3[nH]nc(-c4cncc(N5CCC(N)CC5)n4)c3c2)n1", "pIC50": 6.79}
{"CPD SMILES": "Oc1nccc(-c2ccc3[nH]nc(-c4cncc(O[C@@H]5CCCNC5)n4)c3c2)n1", "pIC50": 6.97}

I: Fc1cncc(-c2ccc3[nH]nc(-c4cncc(O[C@@H]5CCCNC5)n4)c3c2)c1
II: Fc1cccc(F)c1-c1ccc2[nH]cc(-c3nccc(N[C@@H]4CCCNC4)n3)c2c1
Compare I and II and name the one whose reported pIC50 is smaller. Please respond with the label that marks your chosen entry. I

* * *

SYSTEM TESTED: full length recombinant Pim-2 protein (Homo sapiens, UniProt Q9P1W9)
Construct: by full length recombinant Pim-1, Pim-2, or Pim-3 protein; hexahistidine tag followed by a thrombin cleavage site (N); made in house; host or cells: Sf9 (baculovirus) or E. coli (pET28)
Sequence (Q9P1W9 whole entry): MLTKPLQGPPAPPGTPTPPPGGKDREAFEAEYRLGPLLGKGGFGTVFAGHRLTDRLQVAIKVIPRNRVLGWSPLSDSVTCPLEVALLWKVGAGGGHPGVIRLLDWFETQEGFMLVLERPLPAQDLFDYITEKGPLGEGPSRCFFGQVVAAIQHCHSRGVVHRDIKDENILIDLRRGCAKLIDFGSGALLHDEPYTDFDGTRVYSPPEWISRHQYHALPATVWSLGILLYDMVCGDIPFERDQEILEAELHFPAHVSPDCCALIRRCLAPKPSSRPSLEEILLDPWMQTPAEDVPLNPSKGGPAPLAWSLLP
PROTOCOL NOTES: Pim-2 enzyme assay (HTRF, phosphorylation of biotinylated-BAD (S112) peptide)
Format: biochemical
CONDITION SUMMARY: enzyme assay, Pim-2; read-out: Pim2_IC50
pIC50: −log10 of the molar value.
PROPERTY MEASURED: pIC50

P: NC1CCN(c2cncc(-c3n[nH]c4ccc(-c5ccccn5)cc34)n2)CC1
Q: Fc1cccc(F)c1-c1ccc2[nH]cc(-c3cncc(NC4CCNCC4)n3)c2c1
Between the entries labelled P and Q , which has a larger pIC50 value on record? Please respond with the label that marks your chosen entry. Q

P: COc1cccc(-c2ccc3[nH]nc(-c4cncc(N5CCC(N)CC5)n4)c3c2)c1
Q: O[C@H]1CCN(c2cncc(-c3n[nH]c4ccc(-c5c(F)cccc5F)cc34)n2)C1
Compare P and Q and name the one whose reported pIC50 is smaller. Please respond with the label that marks your chosen entry. Q

a: Fc1cccc(F)c1-c1ccc2[nH]cc(-c3cncc(N[C@@H]4CCNC4)n3)c2c1
b: Fc1cccc(F)c1-c1ccc2[nH]nc(-c3cncc(O[C@@H]4CNCC[C@H]4F)n3)c2c1 (single isomer, unassigned) [Example 19]
Between the entries labelled a and b , which has a larger pIC50 value on record? Please respond with the label that marks your chosen entry. a
(a: 7.82, b: 7.55)

* * *

SYSTEM TESTED: full length recombinant Pim-2 protein (Homo sapiens, UniProt Q9P1W9)
Construct: by full length recombinant Pim-1, Pim-2, or Pim-3 protein; hexahistidine tag followed by a thrombin cleavage site (N); made in house; host or cells: Sf9 (baculovirus) or E. coli (pET28)
PROTOCOL NOTES: Pim-2 enzyme assay (HTRF, phosphorylation of biotinylated-BAD (S112) peptide)
Assay type: biochemical
CONDITION SUMMARY: read-out: Pim2_IC50
pIC50: −log10 of the molar value.
PROPERTY MEASURED: pIC50

{"COMPOUND": "CC(C)Oc1cncc(-c2ccc3[nH]cc(-c4nnc(N[C@@H]5CCNC5)o4)c3c2)n1", "pIC50": 7.03}
{"COMPOUND": "CC1(C)CNCCC1Oc1cncc(-c2n[nH]c3ccc(-c4c(F)cccc4F)cc23)n1 (single isomer, unassigned) [Example 432]", "pIC50": 6.94}
{"COMPOUND": "c1cnn(-c2cnc(-c3ccc4[nH]cc(-c5cncc(O[C@@H]6CCCNC6)n5)c4c3)cn2)c1", "pIC50": 6.94}

* * *

SYSTEM TESTED: Pim-2 stably transfected into the U2OS human osteogenic sarcoma line (Homo sapiens)
Construct: expressed in transfected cells; host or cells: U2OS human osteogenic sarcoma line
PROTOCOL NOTES: Pim cell assay, phospho-BAD normalized against total BAD, U2OS stably transfected with Pim-2
Assay type: cell-based
CONDITION SUMMARY: U2OS stably transfected with Pim-2; phospho-BAD normalized against total BAD; 29 min incubation; read-out: Pim2_Cell_IC50_
Reported IC50 values for a set of molecules

{"CPD SMILES": "NC1CCN(c2ccnc(-c3n[nH]c4ccc(-c5c(F)cccc5F)cc34)n2)CC1", "RESULT": "> 31.6 µM"}
{"CPD SMILES": "NC1CCN(c2cncc(-c3c[nH]c4ccc(-c5cncc(C6CC6)n5)cc34)n2)CC1", "RESULT": "> 31.6 µM"}
{"CPD SMILES": "NC1CCN(c2cncc(-c3n[nH]c4ccc(-c5nccc6[nH]ccc56)cc34)n2)CC1", "RESULT": "> 31.6 µM"}
{"CPD SMILES": "c1cc2[nH]nc(-c3cncc(O[C@H]4CNCCC45CC5)n3)c2cc1C1CCOCC1", "RESULT": "> 10 µM"}
{"CPD SMILES": "c1cc2cc(-c3ccc4[nH]cc(-c5cncc(O[C@@H]6CCCNC6)n5)c4c3)cnc2[nH]1", "RESULT": "> 10 µM"}
{"CPD SMILES": "CN(C)c1nc(-c2c[nH]c3ccc(-c4cncc(C5CC5)n4)cc23)cc(=O)[nH]1", "RESULT": "> 31.6 µM"}
{"CPD SMILES": "COC(=O)c1ccc2[nH]nc(-c3ccnc(N[C@@H]4CCCNC4)n3)c2c1", "RESULT": "> 15.8 µM"}
{"CPD SMILES": "c1cc2[nH]cc(-c3cncc(C4CC4)n3)c2cc1-c1cncc(C2CC2)n1", "RESULT": "> 31.6 µM"}

As a next step, examine the molecule that follows.
Which value of IC50 has been reported for `FC(F)Oc1cccc(-c2ccc3[nH]cc(-c4cncc(O[C@@H]5CCCNC5)n4)c3c2)c1` in the records? > 15.8 µM

* * *

SYSTEM TESTED: full length recombinant Pim-3 protein (Homo sapiens)
Construct: by full length recombinant Pim-1, Pim-2, or Pim-3 protein
PROTOCOL NOTES: Pim-3 enzyme assay (HTRF, phosphorylation of biotinylated-BAD (S112) peptide)
CONDITION SUMMARY: read-out: Pim3 IC50
pIC50: −log10 of the molar value.
PROPERTY MEASURED: pIC50

1: NC1CCN(c2cncc(-c3n[nH]c4ccc(-c5ccncc5)cc34)n2)CC1 [Example 102]
2: Fc1cncc(-c2ccc3[nH]nc(-c4cncc(O[C@@H]5CCCNC5)n4)c3c2)c1 [Example 115]
Compare 1 and 2 and name the one whose reported pIC50 is smaller. Please respond with the label that marks your chosen entry. 2

I: COc1cncc(-c2ccc3[nH]nc(-c4cncc(OC)c4)c3c2)c1 [Example 29]
II: c1cc2cc(-c3ccc4[nH]nc(-c5cncc(O[C@@H]6CCCNC6)n5)c4c3)cnc2[nH]1 [Example 121]
Compare I and II and name the one whose reported pIC50 is smaller. Please respond with the label that marks your chosen entry. I

A: CC(C)Oc1cncc(-c2ccc3[nH]cc(-c4cccc(N5CCCC5=O)n4)c3c2)n1 [Example 229]
B: FC(F)(F)c1cccc(-c2ccc3[nH]nc(-c4cncc(O[C@@H]5CCCNC5)n4)c3c2)n1 [Example 142]
Between the entries labelled A and B , which has a larger pIC50 value on record? Please respond with the label that marks your chosen entry. B

P: COc1cccc(-c2ccc3[nH]nc(-c4cncc(N5CCC(N)CC5)n4)c3c2)c1 [Example 77]
Q: NC1CCN(c2cncc(-c3n[nH]c4ccc(-c5ccn[nH]5)cc34)n2)CC1 [Example 80]
Compare P and Q and name the one whose reported pIC50 is smaller. Please respond with the label that marks your chosen entry. P

a: Cn1c(=O)cc(-c2ccc3[nH]nc(-c4cncc(N5CCC(N)CC5)n4)c3c2)c2ccccc21 [Example 50]
b: c1cc2[nH]nc(-c3cncc(O[C@@H]4CCCNC4)n3)c2cc1-c1cncc(C2CC2)n1 [Example 118]
c: CC(C)(C)NC(=O)c1ccc(F)c(-c2ccc3[nH]nc(-c4cncc(N5CCC(N)CC5)n4)c3c2)c1 [Example 37]
d: C(=C\C1CC1)/c1ccc2[nH]nc(-c3cncc(O[C@@H]4CCCNC4)n3)c2c1 [Example 147]
e: NC1CCN(c2nccc(-c3n[nH]c4ccc(-c5c(F)cccc5F)cc34)n2)CC1 [Example 194]
Sort by pIC50, descending. // format: requested-order list of labels b, e, c, d, a
(b: 9.00, e: 8.52, c: 8.30, d: 7.89, a: 7.68)

A: COc1nccc(-c2ccc3[nH]nc(-c4cncc(O[C@@H]5CCCNC5)n4)c3c2)n1 [Example 152]
B: CCNC(=O)c1ccc(F)c(-c2ccc3[nH]nc(-c4cncc(N5CCC(N)CC5)n4)c3c2)c1 [Example 43]
Between the entries labelled A and B , which has a larger pIC50 value on record? Please respond with the label that marks your chosen entry. B
(B: 8.52, A: 8.15)

I: COc1nc2ccccc2cc1-c1ccc2[nH]nc(-c3cncc(N4CCC(N)CC4)n3)c2c1 [Example 2]
II: c1cn2cc(-c3ccc4[nH]nc(-c5cncc(O[C@@H]6CCCNC6)n5)c4c3)ncc2n1 [Example 138]
Compare I and II and name the one whose reported pIC50 is smaller. Please respond with the label that marks your chosen entry. I
